Molecular target: T1, human Y2 receptor (human, UniProt P49146 1-381)
T1 construct: whole, on cells; used as membrane fraction of hY2R/CHO cells; also called human NPY2R; hY2R
T1 sequence (looked up): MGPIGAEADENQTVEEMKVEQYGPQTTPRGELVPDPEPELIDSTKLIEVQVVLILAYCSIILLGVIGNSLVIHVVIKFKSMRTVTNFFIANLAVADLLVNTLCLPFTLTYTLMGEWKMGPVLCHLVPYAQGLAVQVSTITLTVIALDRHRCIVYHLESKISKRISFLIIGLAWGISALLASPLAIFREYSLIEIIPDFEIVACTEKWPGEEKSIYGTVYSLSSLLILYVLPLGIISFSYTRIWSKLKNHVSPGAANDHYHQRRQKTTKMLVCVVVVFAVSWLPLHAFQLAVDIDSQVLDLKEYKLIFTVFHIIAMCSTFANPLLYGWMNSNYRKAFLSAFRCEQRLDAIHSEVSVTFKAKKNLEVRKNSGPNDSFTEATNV
Experiment: RBA: [125I]-PYY displacement, hY2R/CHO membranes
Description: After incubation at room temperature for 60 minutes, the mixture was filtered through the cell harvester FilterMate (PerkinElmer) using UniFilter-96 GF/C treated with polyethylenimine (PEI) solution (20 mM Tris, 0.3% PEI, pH 7.4), and the filter was washed 3 times with a filtering buffer (50 mM Tris, 5 mM MgCl₂, 150 mM NaCl, 0.03% NaN₃, 0.05% CHAPS, pH 7.4). […] The data obtained were analyzed using Prism to calculate the IC₅₀ value.
Non-standard residues stand in square brackets, D forms with d. No end group written: not given here. Phe(4-F) = N[C@@H](Cc1ccc(F)cc1)C(=O)O; Arg(Me) = CNC(=N)NCCC[C@H](N)C(=O)O; tBuAla = CC(C)(C)C[C@H](N)C(=O)O; Cha = N[C@@H](CC1CCCCC1)C(=O)O; 4Amb = NCc1ccc(C(=O)O)cc1; Aib = CC(C)(N)C(=O)O
Listing: IC50 Ratio (vs PYY(3-36)) of selected binders
outcomeMeasure: IC50 Ratio (vs PYY(3-36)) (ratio)

| binder | endpointResult |
| --- | --- |
| [4Amb]RAYANLITRQRY-NH2 (N-terminus assumed; SMILES CC[C@H](C)[C@H](NC(=O)[C@H](CC(C)C)NC(=O)[C@H](CC(N)=O)NC(=O)[C@H](C)NC(=O)[C@H](Cc1ccc(O)cc1)NC(=O)[C@H](C)NC(=O)[C@H](CCCNC(=N)N)NC(=O)c1ccc(CN)cc1)C(=O)N[C@H](C(=O)N[C@@H](CCCNC(=N)N)C(=O)N[C@@H](CCC(N)=O)C(=O)N[C@@H](CCCNC(=N)N)C(=O)N[C@@H](Cc1ccc(O)cc1)C(N)=O)[C@@H](C)O, also called compound No. 31) [4-Aminomethylbenzoyl-[Ala26,28, Ile31]-PYY(25-36)] | 42 |
| [4Amb]RA[Aib]INLITRQRY-NH2 (N-terminus assumed; SMILES CC[C@H](C)[C@H](NC(=O)[C@H](CC(C)C)NC(=O)[C@H](CC(N)=O)NC(=O)[C@@H](NC(=O)C(C)(C)NC(=O)[C@H](C)NC(=O)[C@H](CCCNC(=N)N)NC(=O)c1ccc(CN)cc1)[C@@H](C)CC)C(=O)N[C@H](C(=O)N[C@@H](CCCNC(=N)N)C(=O)N[C@@H](CCC(N)=O)C(=O)N[C@@H](CCCNC(=N)N)C(=O)N[C@@H](Cc1ccc(O)cc1)C(N)=O)[C@@H](C)O, also called compound No. 53) [4-Aminomethylbenzoyl-[Ala26, Aib27, Ile28,31]-PYY(25-36)] | 18 |
| Ac-S[dP]RH[Cha][Cha]NL[Aib]TRQR[tBuAla]-NH2 (SMILES CC(=O)N[C@@H](CO)C(=O)N1CCC[C@@H]1C(=O)N[C@@H](CCCNC(=N)N)C(=O)N[C@@H](Cc1c[nH]cn1)C(=O)N[C@@H](CC1CCCCC1)C(=O)N[C@@H](CC1CCCCC1)C(=O)N[C@@H](CC(N)=O)C(=O)N[C@@H](CC(C)C)C(=O)NC(C)(C)C(=O)N[C@H](C(=O)N[C@@H](CCCNC(=N)N)C(=O)N[C@@H](CCC(N)=O)C(=O)N[C@@H](CCCNC(=N)N)C(=O)N[C@@H](CC(C)(C)C)C(N)=O)[C@@H](C)O, also called compound No. 198) [Ac-[D-Pro24, Cha27,28, Aib31, Leu(Me)36]-PYY(23-36)] | 12 |
| [4Amb]RAYWNLITRQRY-NH2 (N-terminus assumed; SMILES CC[C@H](C)[C@H](NC(=O)[C@H](CC(C)C)NC(=O)[C@H](CC(N)=O)NC(=O)[C@H](Cc1c[nH]c2ccccc12)NC(=O)[C@H](Cc1ccc(O)cc1)NC(=O)[C@H](C)NC(=O)[C@H](CCCNC(=N)N)NC(=O)c1ccc(CN)cc1)C(=O)N[C@H](C(=O)N[C@@H](CCCNC(=N)N)C(=O)N[C@@H](CCC(N)=O)C(=O)N[C@@H](CCCNC(=N)N)C(=O)N[C@@H](Cc1ccc(O)cc1)C(N)=O)[C@@H](C)O, also called compound No. 23) [4-Aminomethylbenzoyl-[Ala26, Trp28, Ile31]-PYY(25-36)] | 3.4 |
| [4Amb]RPYINLITRQRY-NH2 (N-terminus assumed; SMILES CC[C@H](C)[C@H](NC(=O)[C@H](Cc1ccc(O)cc1)NC(=O)[C@@H]1CCCN1C(=O)[C@H](CCCNC(=N)N)NC(=O)c1ccc(CN)cc1)C(=O)N[C@@H](CC(N)=O)C(=O)N[C@@H](CC(C)C)C(=O)N[C@H](C(=O)N[C@H](C(=O)N[C@@H](CCCNC(=N)N)C(=O)N[C@@H](CCC(N)=O)C(=O)N[C@@H](CCCNC(=N)N)C(=O)N[C@@H](Cc1ccc(O)cc1)C(N)=O)[C@@H](C)O)[C@@H](C)CC, also called compound No. 19) [4-Aminomethylbenzoyl-[Pro26, Ile28,31]-PYY(25-36)] | 45 |
| [dA]SLRAYINLITRQ[Arg(Me)]Y-NH2 (N-terminus assumed; SMILES CC[C@H](C)[C@H](NC(=O)[C@H](Cc1ccc(O)cc1)NC(=O)[C@H](C)NC(=O)[C@H](CCCNC(=N)N)NC(=O)[C@H](CC(C)C)NC(=O)[C@H](CO)NC(=O)[C@@H](C)N)C(=O)N[C@@H](CC(N)=O)C(=O)N[C@@H](CC(C)C)C(=O)N[C@H](C(=O)N[C@H](C(=O)N[C@@H](CCCNC(=N)N)C(=O)N[C@@H](CCC(N)=O)C(=O)N[C@@H](CCCNC(=N)NC)C(=O)N[C@@H](Cc1ccc(O)cc1)C(N)=O)[C@@H](C)O)[C@@H](C)CC, also called compound No. 3) [[D-Ala22, Ala26, Ile28,31, Arg(Me)35]-PYY(22-36)] | 6 |
| [4Amb]RAYI[Aib]LITRQRY-NH2 (N-terminus assumed; SMILES CC[C@H](C)[C@H](NC(=O)[C@H](CC(C)C)NC(=O)C(C)(C)NC(=O)[C@@H](NC(=O)[C@H](Cc1ccc(O)cc1)NC(=O)[C@H](C)NC(=O)[C@H](CCCNC(=N)N)NC(=O)c1ccc(CN)cc1)[C@@H](C)CC)C(=O)N[C@H](C(=O)N[C@@H](CCCNC(=N)N)C(=O)N[C@@H](CCC(N)=O)C(=O)N[C@@H](CCCNC(=N)N)C(=O)N[C@@H](Cc1ccc(O)cc1)C(N)=O)[C@@H](C)O, also called compound No. 46) [4-Aminomethylbenzoyl-[Ala26, Ile28,31, Aib29]-PYY(25-36)] | 87 |
| [4Amb]RAYIN[Phe(4-F)]ITRQRY-NH2 (N-terminus assumed; SMILES CC[C@H](C)[C@H](NC(=O)[C@H](Cc1ccc(O)cc1)NC(=O)[C@H](C)NC(=O)[C@H](CCCNC(=N)N)NC(=O)c1ccc(CN)cc1)C(=O)N[C@@H](CC(N)=O)C(=O)N[C@@H](Cc1ccc(F)cc1)C(=O)N[C@H](C(=O)N[C@H](C(=O)N[C@@H](CCCNC(=N)N)C(=O)N[C@@H](CCC(N)=O)C(=O)N[C@@H](CCCNC(=N)N)C(=O)N[C@@H](Cc1ccc(O)cc1)C(N)=O)[C@@H](C)O)[C@@H](C)CC, also called compound No. 58) [4-Aminomethylbenzoyl-[Ala26, Ile28,31, Phe(4F)30]-PYY(25-36)] | 4.1 |
